Experiment: Solubility L in liquid crystal mixture (saturated solution, comparison of extinction)
Assay type: physicochemical
Conditions: ZLI 1840 (Merck), room temperature, 1 week stirring; percentages by weight unless stated otherwise
Label rule, in plain words: Solubility L of 0.9% and up is T, under 0.9% is F.

Check out these entries, answers already filled in.
CCCCCC1CCC(c2ccc(COc3ccc(N=Nc4ccc(N=Nc5ccc(N=Nc6ccc(OCc7ccc(C8CCC(CCCCC)CC8)cc7)cc6C)cc5)cc4)c(C)c3)cc2)CC1 (stereo not drawn): F
Cc1cc(C)c(COc2ccc(N=Nc3ccc(N=Nc4ccc(N=Nc5ccc(OCc6c(C)cc(C)cc6C)cc5C)cc4)cc3)c(C)c2)c(C)c1: T
CCCCC1CCC(c2ccc(COc3ccc(N=Nc4ccc(N=Nc5ccc(N=Nc6ccc(OCc7ccc(C8CCC(CCCC)CC8)cc7)cc6C)cc5)cc4)c(C)c3)cc2)CC1 (stereo not drawn): F
Cc1cc(OCc2ccc(C(C)(C)C)cc2)ccc1N=Nc1ccc(N=Nc2ccc(N=Nc3ccc(OCc4ccc(C(C)(C)C)cc4)cc3C)cc2)cc1: F

Lab note: next compound to report on.
Query :: Hi team, for CCCCCC1CCC(c2ccc(COc3ccc(N=Nc4ccc(N=Nc5ccc(N=Nc6ccc(O)cc6C)cc5)cc4)c(C)c3)cc2)CC1 (stereo not drawn) , is the recorded Solubility L at or above 0.9%?
Result :: T

====

Experiment: Degree of order S in nematic broad-range mixture (dichroic ratio, homogeneous edge orientation, ground PVA cells)
Assay type: physicochemical
Conditions: ZLI 1840 (Merck), room temperature
experimental.endpoint: Degree of order S
Reply with the value as a number alone.

Cc1cc(OCc2ccc(C(C)(C)C)cc2)ccc1N=Nc1ccc(N=Nc2ccc(N=Nc3ccc(OCc4ccc(C(C)(C)C)cc4)cc3C)cc2)cc1 [Example 4]: 0.75
CCCCC1CCC(c2ccc(COc3ccc(N=Nc4ccc(N=Nc5ccc(N=Nc6ccc(OCc7ccc(C8CCC(CCCC)CC8)cc7)cc6C)cc5)cc4)c(C)c3)cc2)CC1 (stereo not drawn) [Example 8]: 0.79
CCCCCC1CCC(c2ccc(COc3ccc(N=Nc4ccc(N=Nc5ccc(N=Nc6ccc(O)cc6C)cc5)cc4)c(C)c3)cc2)CC1 (stereo not drawn) [Example 5]: 0.79
Cc1cc(C)c(COc2ccc(N=Nc3ccc(N=Nc4ccc(N=Nc5ccc(OCc6c(C)cc(C)cc6C)cc5C)cc4)cc3)c(C)c2)c(C)c1 [Example 3]: 0.77
CCCCCC1CCC(c2ccc(COc3ccc(N=Nc4ccc(N=Nc5ccc(N=Nc6ccc(OCc7ccc(C8CCC(CCCCC)CC8)cc7)cc6C)cc5)cc4)c(C)c3)cc2)CC1 (stereo not drawn) [Example 9]: 0.81

Query :: Item Cc1cc(O)ccc1N=Nc1ccc(N=Nc2ccc(N=Nc3ccc(OCc4ccccc4)cc3C)cc2)cc1 [Example 1] : provide Degree of order S
Result :: 0.75

====

Test: Solubility L in liquid crystal mixture (saturated solution, comparison of extinction)
Assay type: physicochemical
Settings: ZLI 1957/5 (Merck), room temperature; percentages by weight unless stated otherwise
experimental.endpoint: Solubility L (%)
Report the figure in % without appending any unit label.

Example results:
CCCCCc1ccc(COc2cc(C)c(N=Nc3ccc(N=Nc4ccc(N=Nc5c(C)cc(OCc6ccc(CCCCC)cc6)cc5C)cc4)cc3)c(C)c2)cc1: 3
Cc1cc(OCc2cc(C(C)(C)C)cc(C(C)(C)C)c2)ccc1N=Nc1ccc(N=Nc2ccc(N=Nc3ccc(OCc4cc(C(C)(C)C)cc(C(C)(C)C)c4)cc3C)cc2)cc1: 0.7
CCCCCC1CCC(c2ccc(COc3cc(C)c(N=Nc4ccc(N=Nc5ccc(N=Nc6c(C)cc(OCc7ccc(C8CCC(CCCCC)CC8)cc7)cc6C)cc5)cc4)c(C)c3)cc2)CC1 (stereo not shown): 0.2

Query :: Return Solubility L for the following molecule: CCCCCc1ccc(COc2ccc(N=Nc3ccc(N=Nc4ccc(N=Nc5ccc(OCc6ccc(CCCCC)cc6)cc5C)cc4)cc3)c(C)c2)cc1
Result :: 1.2

====

Experiment: Degree of order S in nematic broad-range mixture (dichroic ratio, homogeneous edge orientation, ground PVA cells)
Format: physicochemical
Settings: ZLI 1957/5 (Merck), room temperature
Description: The degree of order S was determined using the conventional equation [formula] the measurement being carried out in commercial measuring cells with a homogeneous edge orientation (ground PVA). The dichroic ratio CR was determined by measuring the extinctions E" (measurement with light polarized parallel to the preferred direction of the nematic phase) and E^.perp. […]
# Degree of order S per record follows
Please give only the number in your answer, with no unit.

Query :: Return reported Degree of order S. Input molecule: CCCCCc1ccc(COc2cc(C)c(N=Nc3ccc(N=Nc4ccc(N=Nc5c(C)cc(OCc6ccc(CCCCC)cc6)cc5C)cc4)cc3)c(C)c2)cc1
Result :: 0.80

Query :: Provide only the value of recorded Degree of order S for CCCCCC1CCC(c2ccc(COc3cc(C)c(N=Nc4ccc(N=Nc5ccc(N=Nc6c(C)cc(OCc7ccc(C8CCC(CCCCC)CC8)cc7)cc6C)cc5)cc4)c(C)c3)cc2)CC1 (stereo not shown)
Result :: 0.81

Query :: Complete the entry with Degree of order S for Cc1cc(OCc2cc(C(C)(C)C)cc(C(C)(C)C)c2)ccc1N=Nc1ccc(N=Nc2ccc(N=Nc3ccc(OCc4cc(C(C)(C)C)cc(C(C)(C)C)c4)cc3C)cc2)cc1
Result :: 0.76

Query :: Please report the measured Degree of order S for CCCCCc1ccc(COc2ccc(N=Nc3ccc(N=Nc4ccc(N=Nc5ccc(OCc6ccc(CCCCC)cc6)cc5C)cc4)cc3)c(C)c2)cc1
Result :: 0.81
